- Test system: SK-MEL-5 melanoma
- protocol-notes: NCI tumour cell line growth inhibition, 48 h; in the data active = GI50 below about 0.43 µM; inactive = the rest
Classes used: active, inactive

compound	answer-label
COc1cc(C2C3=C(COC3=O)Nc3cc4c(cc32)OCO4)cc2c1OCO2 (stereo not drawn)	active
CC/C=C\C[C@H](O)C/C=C1/C(=O)C=C[C@@H]1C/C=C\CCCC(=O)NC	inactive
COC(=O)[C@@H](OC)[C@@H]1Cc2cc3cc(OC4CC(OC5CC(O)C(O)C(C)O5)C(O)C(C)O4)c(C)c(O)c3c(O)c2C(=O)[C@H]1OC1CC(OC2CC(OC3CC(C)(O)C(O)C(C)O3)C(O)C(C)O2)C(O)C(C)O1 (stereo partly drawn)	active
FC(F)(F)c1[nH]ncc1-c1nc2ccc3[nH]ncc3c2c2c1CCCC2	inactive
CC1(C)N=C(N)N=C(N)N1c1ccc(Cl)c(Cl)c1	inactive
CN(C)CCNc1nc2ccccc2c2occc12	inactive
CCN1C(=O)N(CC)C2C1NN=c1s/c(=C\c3cccc([N+](=O)[O-])c3)c(=O)n12 (stereo not drawn)	active
CNC(=O)c1cc2c(Oc3ccc(NC(=S)NC(=O)Cc4ccccc4)cc3F)ccnc2cc1OC	inactive

----------
- Tested on: DU-145 prostate
- protocol-notes: NCI tumour cell line growth inhibition, 48 h
quantity-measured: TGI (µM)

                                   compound  relation  measured_result
0  CN(C)CCOc1ccc(-c2cc(-c3ccc4c(c3)CC/C4=N\O)c(-c3ccncc3)o2)cc1         =             7.38
1  CC(=O)N(C(C)=O)n1nc2c(n1)C(=O)c1ccccc1C2=O         >              100
2  C#C/C=C/CC1OC(C(Br)CC)CC(Br)C2CC1O2 (stereo not given)         >              100
3  CN(C)/C=C/c1c2c(nc3ccccc13)C(=O)c1ccccc1C2=O         =             2.69
4  O=S(=O)(O)c1ccccc1N=Nc1ccc(N=Nc2c(O)ccc3ccccc23)c(S(=O)(=O)O)c1         >              100
5  COc1ccc(/C=C(/c2ccccc2)c2c(C)cc(C)c(/C(=C\c3ccc(OC)cc3)c3ccccc3)c2N=Nc2cc(C)cc(C)c2)cc1         >              100
6  Cc1cc(S(N)(=O)=O)c(S/C(=N\Nc2ccc([N+](=O)[O-])cc2)c2ccc3ccccc3c2)cc1Cl         =               43
7  CCCC#CCOC(=O)c1cc([N+](=O)[O-])cc([N+](=O)[O-])c1         >              100
8  NCCN1C(=O)c2ccccc2C1(O)c1ccc(Cl)cc1 (stereo not given)         >              100
9           Nc1c2c(nc3ccccc13)CCCc1ccccc1-2         =             80.3

----------
- System: LOX IMVI melanoma
- protocol-notes: NCI tumour cell line growth inhibition, 48 h; in the data active = GI50 below about 0.43 µM; inactive = the rest
Classes used: YES (active), NO (inactive)

In [3]: df
Out[3]:
                                   compound  answer_label
0  COc1ccc(/C(=N/O)c2cc(OC)c(OC)c(OC)c2)c(OC)c1N            NO
1  COc1ccc(-c2nc(-c3nc4ccc(C(F)(F)F)cc4[nH]3)c3ccccn23)cc1            NO
2  CC1(C)CC(=O)c2c(ccc(C(=O)C[C@@H](N)CO)c2N)O1           YES
3  C[C@]12CCc3sc(-c4cccc(F)c4)nc3C1=CC[C@@H]1[C@@H]2CC[C@]2(C)C(=O)CC[C@@H]12            NO
4  CCCCCSC1C2C(=O)C(Br)=CC13CCNc1c(O)c4c5c(c13)=[N+]2CCC=5C=N4 (configuration not stated)            NO
5  CN(C)CCOc1ccc(-c2cc(-c3ccc4c(c3)CC/C4=N\O)c(-c3ccncc3)o2)cc1            NO
6  CC12CCC(O)CC1=CCC1C2CCC2(C)C(c3cccnc3)=CCC12 (configuration not stated)            NO

----------
- Tested on: SNB-19 CNS
- protocol-notes: NCI tumour cell line growth inhibition, 48 h
Where a SMILES comes first, the peptide text is derived from it. The star is where a group is joined. Boc = CC(C)(C)OC(=O)*; OBn = c1ccc(CO*)cc1
quantity-measured: TGI

compound	measured-result
Nc1cc2nc3ccccc3oc-2cc1=O	16 µM
CC(=O)C1=C(C)N(c2ccccc2)C2(O)C=CC(=O)C3=C(O)c4ccccc4C(=O)C312 (centres undefined)	38.6 µM
COc1cc(Nc2nc3ccccc3nc2C(C)C)cc(OC)c1OC	> 100 µM
CC1=C/C(=C2/N=C(N(C)C)SS2)C(C)=N1	> 100 µM
CC(=O)NC1=C(Sc2ccc(Cl)cc2)C(=O)c2ccccc2C1=O	28.6 µM
C#C/C=C/CC1OC(C(Br)CC)CC(Br)C2CC1O2 (centres undefined)	> 100 µM
Cc1cc(S(N)(=O)=O)c(S/C(=N\Nc2ccc([N+](=O)[O-])cc2)c2ccc3ccccc3c2)cc1Cl	> 100 µM
CC(C)CC(NC(=O)C(Cc1ccccc1)NC(=O)C(Cc1ccccc1)NC(=O)OC(C)(C)C)C(=O)OCc1ccccc1 (stereo not drawn) (Boc-Phe-Phe-Leu-OBn; configuration not given here)	> 100 µM
Cc1cc2c(C(C)C)c(O)c(O)c(C=Nc3ccccc3)c2c(O)c1-c1c(C)cc2c(C(C)C)c(O)c(O)c(C=Nc3ccccc3)c2c1O	> 100 µM

----------
- Test system: HOP-92 NSCLC
- protocol-notes: NCI tumour cell line growth inhibition, 48 h; in the data active means GI50 below about 0.43 µM; inactive means the rest
Classes used: active, inactive

                                    compound  answer_label
 0  COc1ccc2nccc(/C=C/c3ccnc4ccc(OC)cc34)c2c1      inactive
 1  O=S(=O)(NCCO)c1cc[c]([Sb](=[O])([OH])[OH])cc1      inactive
 2  CN1CCN(c2ccc(C(=O)Nc3cccc(C#Cc4cccc5[nH]nc(N)c45)c3)cc2C(F)(F)F)CC1      inactive
 3         Cn1c2ccccc2c2nnc(NNCc3ccccn3)nc21        active
 4  CNC(=O)c1cc2c(Oc3ccc(NC(=S)NC(=O)Cc4ccccc4)cc3F)ccnc2cc1OC      inactive
 5  COc1ccc2[nH]c(O)c(/C=c3/ccc4c(c3)N=C(c3ccc(F)cc3)N=4)c2c1      inactive
 6  Oc1c(CNCCNCc2cc(Cl)cc(Cc3ccccc3)c2O)cc(Cl)cc1Cc1ccccc1      inactive
 7  COc1cc(NC(C)CCCN)c2ncccc2c1Sc1ccc(Cl)cc1 (stereo unspecified)      inactive
 8  CCCCN1CCN(c2ccc3nc(-c4ccc5nc(-c6ccc(OCC)c(OCC)c6)[nH]c5c4)[nH]c3c2)CC1      inactive
 9  C[C@]12CC[C@@H]3c4ccc(O)cc4CC[C@H]3[C@@H]1CC[C@@H]2NS(=O)(=O)c1ccc2ccccc2c1      inactive
10  CSc1nc(N)c2c(n1)NC(c1ccccc1)C1CCc3ccccc3C1=N2 (stereo unspecified)      inactive
11  CC(=O)/C(=C\c1c(-c2ccccc2)[nH]c2ccccc12)S(=O)(=O)c1ccccc1      inactive
12  CC(OC(=O)N(N(CCCl)S(C)(=O)=O)S(C)(=O)=O)c1ccc([N+](=O)[O-])cc1 (stereo unspecified)      inactive
13  CN(C)c1ccc(C(=C2C=CC(=[N+](C)C)C=C2)c2ccccc2Cl)cc1        active
14                O=Nc1c(O)c2ccccc2c2ccccc12      inactive
15               CN(C)CCNc1nc2ccccc2c2occc12      inactive

----------
- Test system: UO-31 renal
- protocol-notes: NCI tumour cell line growth inhibition, 48 h; in the data active = GI50 below about 0.43 µM; inactive = the rest
Classes used: active, inactive

In [3]: df
Out[3]:
                                    compound  answer_label
 0  COC(=O)/C(=C\c1c(-c2ccccc2)[nH]c2ccccc12)S(C)(=O)=O      inactive
 1     Cc1cn2c(/C=N/N=C(N)N)c(-c3ccsc3)nc2s1      inactive
 2  C[C@@](O)(/C=C/[C@H]1CC=CC(=O)O1)[C@@H](C[C@@H](O)\C=C/C=C\C=C\CO)OP(=O)(O)O      inactive
 3  N=C(N)SCc1ccc([N+](=O)[O-])cc1[N+](=O)[O-]      inactive
 4  COc1cc(NC(C)CCCN)c2ncccc2c1Sc1ccc(Cl)cc1 (configuration not stated)      inactive
 5  COc1ccc(-c2nnc(Nc3nc(O)c(C4=c5cc(F)ccc5=NC4=O)s3)o2)cc1      inactive
 6  COc1ccc2[nH]c(O)c(/C=c3/ccc4c(c3)N=C(c3ccc(F)cc3)N=4)c2c1      inactive
 7  COc1ccc2nccc(/C=C/c3ccnc4ccc(OC)cc34)c2c1      inactive
 8  CC(C)(C)OC(=O)NCCCCCCCCCCn1c2c(c3ccccc3c1=O)C(=O)c1ccccc1-2      inactive
 9  CC12CCC(O)CC1=CCC1C2CCC2(C)C(c3cccnc3)=CCC12 (configuration not stated)      inactive
10  CNCCCn1c2c(c3ccc(F)cc3c1=O)C(=O)c1cc(OC)cnc1-2        active
11  Cc1ncc(-c2ccnc(Nc3ccc(S(C)(=O)=O)cc3)n2)n1C(C)C      inactive

Measured values drawn from PubChem BioAssay (NCI) for this set.
